Biological target: Spf1p (Saccharomyces cerevisiae)
Construct: full length with C-terminal FLAG-RGS10His tag; persistent dimer seen on SDS-PAGE
Sequence (P39986 whole entry): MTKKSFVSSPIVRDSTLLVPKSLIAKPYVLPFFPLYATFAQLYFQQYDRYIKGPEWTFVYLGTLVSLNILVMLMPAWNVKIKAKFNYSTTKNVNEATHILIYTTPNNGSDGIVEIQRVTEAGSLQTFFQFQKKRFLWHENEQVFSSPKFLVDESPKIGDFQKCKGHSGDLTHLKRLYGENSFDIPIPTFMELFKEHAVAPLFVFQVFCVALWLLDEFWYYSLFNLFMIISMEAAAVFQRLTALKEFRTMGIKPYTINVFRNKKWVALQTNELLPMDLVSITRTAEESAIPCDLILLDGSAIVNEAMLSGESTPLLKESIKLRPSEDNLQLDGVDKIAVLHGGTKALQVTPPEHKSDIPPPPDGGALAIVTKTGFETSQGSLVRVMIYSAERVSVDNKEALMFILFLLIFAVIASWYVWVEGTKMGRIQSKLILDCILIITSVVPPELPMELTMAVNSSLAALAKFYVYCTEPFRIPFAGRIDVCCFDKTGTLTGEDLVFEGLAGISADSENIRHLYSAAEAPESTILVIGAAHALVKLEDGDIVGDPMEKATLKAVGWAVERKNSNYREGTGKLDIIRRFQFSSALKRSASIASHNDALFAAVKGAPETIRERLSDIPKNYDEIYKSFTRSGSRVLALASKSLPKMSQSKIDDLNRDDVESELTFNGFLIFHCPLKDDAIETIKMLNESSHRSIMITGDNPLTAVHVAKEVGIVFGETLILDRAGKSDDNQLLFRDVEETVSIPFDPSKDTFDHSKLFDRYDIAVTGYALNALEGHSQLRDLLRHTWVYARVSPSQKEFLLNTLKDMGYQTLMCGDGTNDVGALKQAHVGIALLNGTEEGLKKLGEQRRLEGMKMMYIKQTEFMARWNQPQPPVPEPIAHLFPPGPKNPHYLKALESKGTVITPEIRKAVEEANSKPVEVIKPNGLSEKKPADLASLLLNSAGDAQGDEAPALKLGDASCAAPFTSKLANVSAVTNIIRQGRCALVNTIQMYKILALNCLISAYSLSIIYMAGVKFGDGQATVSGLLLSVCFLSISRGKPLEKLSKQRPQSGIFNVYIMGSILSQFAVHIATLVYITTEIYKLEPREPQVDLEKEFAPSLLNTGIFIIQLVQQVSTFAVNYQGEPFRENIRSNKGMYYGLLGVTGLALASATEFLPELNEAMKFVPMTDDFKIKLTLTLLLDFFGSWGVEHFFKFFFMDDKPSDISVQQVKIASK
Experiment: ATPase assay, phosphate release (molybdate colorimetric)
From the text: ATPase assay, phosphate release (molybdate colorimetric) on Spf1p | Vanadate sensitivity of Spf1p in mixed YPL/OG micelles
Quantity Name: pKi
Answers are plain numbers, as −log10 of the molar value.

Recorded pKi of [O]=[V]([OH])([OH])[OH] [vanadate] , please.
4.99
